- study target: T1, human GLP-1R (human), P43220
- T1 chain: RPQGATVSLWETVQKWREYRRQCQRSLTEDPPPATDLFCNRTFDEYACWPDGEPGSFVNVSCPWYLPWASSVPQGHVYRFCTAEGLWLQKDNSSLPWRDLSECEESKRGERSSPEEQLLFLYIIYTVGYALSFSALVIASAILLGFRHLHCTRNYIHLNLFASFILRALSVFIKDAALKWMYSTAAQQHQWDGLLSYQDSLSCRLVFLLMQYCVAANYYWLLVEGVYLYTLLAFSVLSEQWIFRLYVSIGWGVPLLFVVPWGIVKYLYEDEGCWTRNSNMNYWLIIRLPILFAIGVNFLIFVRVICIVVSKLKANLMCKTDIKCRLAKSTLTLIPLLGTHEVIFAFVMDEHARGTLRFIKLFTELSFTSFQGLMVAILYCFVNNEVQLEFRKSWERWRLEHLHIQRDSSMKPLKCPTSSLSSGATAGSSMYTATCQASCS
Non-standard residues stand in square brackets, D forms with d. Groups on a side chain read outwards from the residue. Primed or numbered codes have the meaning given here. No end group written: not given here. *: point of attachment. Lauroyl = CCCCCCCCCCCC(=O)*; Iva = CC[C@](C)(N)C(=O)O; Aib = CC(C)(N)C(=O)O
readout name: Agonist activity (EC50, M)
Answers are plain numbers, in M.

Y[Aib]EGTFISDYSIALDRK([PEG(2)-dodec])HQ[Aib]NFVNW[Iva]LAQRPSSGAPPPS (not fully specified (C-terminus); ends and bridges not checked) [Compound 239] = 5e-08

-- ask Could you tell me which Agonist activity (EC50, M) is on file for Y[Aib]EGTFISDYSK([PEG(2)-Lauroyl])ALDRIAQ[Aib]NFVNWLLAQRPSSGAPPPSR (ends and bridges not checked) [Compound 197] ?
-- reply 1.1e-08
